target: furin, P09958; assay: furin cleavage Z-score vs untreated control; higher = more cleavage, active = 3.5 or more, inactive = 1 or less, 8 variable residues between constant flanks; conditions: 30 min;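 note: purified furin at 1:10 enzyme:substrate in 50 mM HEPES pH 7.5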
Sequence (P09958 whole entry): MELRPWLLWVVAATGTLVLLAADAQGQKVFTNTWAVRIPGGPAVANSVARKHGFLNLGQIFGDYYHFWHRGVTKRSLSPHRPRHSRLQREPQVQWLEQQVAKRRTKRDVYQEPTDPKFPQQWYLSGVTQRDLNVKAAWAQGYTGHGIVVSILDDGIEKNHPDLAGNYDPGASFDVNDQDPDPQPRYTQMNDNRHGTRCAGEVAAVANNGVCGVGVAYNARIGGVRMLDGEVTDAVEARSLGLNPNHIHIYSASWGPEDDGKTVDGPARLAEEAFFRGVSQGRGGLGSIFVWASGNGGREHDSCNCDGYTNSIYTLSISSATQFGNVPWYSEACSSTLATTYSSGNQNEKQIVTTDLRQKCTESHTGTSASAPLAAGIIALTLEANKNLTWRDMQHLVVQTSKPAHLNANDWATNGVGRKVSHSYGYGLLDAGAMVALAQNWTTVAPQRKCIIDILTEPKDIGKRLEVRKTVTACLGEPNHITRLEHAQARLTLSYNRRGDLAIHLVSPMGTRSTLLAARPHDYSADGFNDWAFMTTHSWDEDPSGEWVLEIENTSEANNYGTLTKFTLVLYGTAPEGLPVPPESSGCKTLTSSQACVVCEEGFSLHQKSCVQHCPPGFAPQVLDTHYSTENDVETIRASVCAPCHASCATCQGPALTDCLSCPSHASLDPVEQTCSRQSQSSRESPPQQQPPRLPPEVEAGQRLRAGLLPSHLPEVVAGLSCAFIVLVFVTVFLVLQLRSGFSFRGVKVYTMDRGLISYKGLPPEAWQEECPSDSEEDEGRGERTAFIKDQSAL
The list shows a part of the results. The hit rate among all sequences tested is not known here.
measuredProperty: furin cleavage Z-score
Give bare numbers.

# count of solved cases: 3
# constructSequence, furin cleavage Z-score
measured = [
    ("CARLCRKRRCAGNASASA [FS-1478]", 7.28),
    ("CAEVWCHRPSAGNASASA [HC2348]", 0.64),
    ("CAGRRRRHRSAGNASASA [FS-532]", 6.94),
]

Look at each sequence and report its furin cleavage Z-score.
1. CAIPKRLRRSAGNASASA [FS-35]
2. CARSGRSRSRAGNASASA [FS-1926]
3. CARLASCRPLAGNASASA [HC388]
4. CAMPKKTRRSAGNASASA [FS-1140]

Response:
1.2
-1.41
-2.04
9.14
